test system: NCI-H23 lung; experiment: NCI tumour cell line growth inhibition, 48 h; in the data active = GI50 below about 0.43 µM; inactive = the rest
Where a SMILES comes first, the peptide text is derived from it. [ ]: non-standard residue; d: D form. 2Nal = N[CH](Cc1ccc2ccccc2c1)C(=O)O
Outcomes: active, inactive

Molecule: NC1=C(c2nc(-c3cc4ccccc4oc3=O)cs2)C(c2ccco2)c2c(c3ccccc3oc2=O)O1 (stereo not drawn)
Class Assignment: inactive
--
Molecule: Nc1ccc(-c2ccc(-c3nc4ccccc4[nH]3)cc2)cc1
Class Assignment: inactive
--
Molecule: N#Cc1ccc(-n2cnc(NC(=O)[C@H]3CCN(C#N)C3)c2)cc1
Class Assignment: inactive
--
Molecule: O=C(c1cccs1)c1c(C(F)(F)F)n([O-])c2cc(F)c(F)cc2[n+]1=O
Class Assignment: inactive
--
Molecule: CC(NC(=O)C(N)Cc1ccccc1)C(=O)NC(Cc1ccc(O)cc1)C(=O)NC(Cc1c[nH]c2ccccc12)C(=O)NC(CCCCN)C(=O)NC(C(=O)NC(C)C(=O)NC(Cc1ccc2ccccc2c1)C(N)=O)C(C)C (stereo not drawn) (H-FAYWKVA[2Nal]-NH2; configuration not given here)
Class Assignment: inactive
--
Molecule: C/C=C(/C)C(=O)OC1C=C(CO)C(=O)C(OC(=O)/C(C)=C\C)C1C(C)C (stereo not drawn)
Class Assignment: inactive
--
Molecule: N#CC1=C(N)Oc2c(sc3c(F)cccc23)C1c1ccc([N+](=O)[O-])cc1 (stereo not drawn)
Class Assignment: active
--
Molecule: C[C@]12CC[C@H]3[C@@H](C[C@@H]4SC(Nc5cccc(F)c5)=N[C@@]45CC(=O)CC[C@]35C)[C@@H]1CCC2=O
Class Assignment: inactive
